system: COLO 205 colon; experiment: NCI-60 one-dose screen, 48 h (100 = growth as untreated, 0 = no growth, -100 = all killed); settings: 10 µM unless noted
The panel holds about 83,000 compounds, 20% with a hit somewhere; the sample as a whole holds those more often.
Measurement type: growth (%)
Entry rule: numbers only, all in %.

Reference set (3 entries):
>  <Compound>
O=C(N/N=C/c1cccc(O)c1O)c1ccccc1

>  <Output unit>
%

>  <growth>
5.29

$$$$
>  <Compound>
CCc1ccc(-c2nc(SCC(=O)NC3CCCCC3)n[nH]2)cc1

>  <Output unit>
%

>  <growth>
122

$$$$
>  <Compound>
Nc1ncnc2c1CN(Cc1ccccc1)CC2

>  <Output unit>
%

>  <growth>
115

$$$$

# growth (compound: `ICCC(c1ccccc1)(c1ccccc1)c1ccccc1` ) is -61.5

# growth (compound: `Cc1ccc(/C=C/C(=O)c2ccc(F)cc2)s1` ) is 108

# growth (compound: `O=C1/C(=C/c2ccccc2O)C(=S)SN1Cc1ccco1` ) is 113

# growth (compound: `CSc1nc(Nc2ccc(S(=O)(=O)Nc3ccon3)cc2)c(C#N)c(-c2ccc(Cl)cc2)n1` ) is 108

# growth (compound: `COc1ccc(-c2ccc(O)c(C(=O)/C=C/c3cc(OC)c(OC)c(OC)c3)c2)cc1` ) is 83.7

# growth (compound: `O=C1Nc2ccc(C(=O)O)c(O)c2C1=O` ) is 104

# growth (compound: COc1ccc(C2CC(c3ccc4c(c3)OCO4)=NN2C=O)cc1 (stereo unspecified) ) is 115

# growth (compound: C[C@H]1O[C@@H](O[C@H]2[C@@H](O)C[C@H](O[C@H]3[C@@H](O)C[C@H](O[C@H]4CC[C@]5(C)C6CC[C@]7(C)[C@@H](C8=CC(=O)OC8)CC[C@]7(O)C6CC[C@@H]5C4)O[C@@H]3C)O[C@@H]2C)C[C@H](O)[C@@H]1O (stereo partly specified) ) is -92.6

# growth (compound: `C(=C1c2ccccc2-c2ccccc21)c1ccccn1` ) is 84.9

# growth (compound: `Nc1ccc2c(c1)Cc1cc(Cl)c(Cl)cc1-2` ) is 85.1

# growth (compound: `COc1ccc2c3c(ccc2c1)C(=O)/C(=C\O)CC3` ) is 105

# growth (compound: `c1cc[n+](Cc2ccnc3ccccc23)cc1` ) is 104

# growth (compound: `COc1ccc(CNC(=O)c2c(C)n([O-])c3cc(F)c(F)cc3[n+]2=O)cc1` ) is 131

# growth (compound: `Nc1ccc2c(c1Br)Cc1ccccc1-2` ) is 99.2

# growth (compound: `COc1ccccc1NC(=O)c1sc2nc3c(cc2c1N)C(=O)CCC3` ) is 26.4

# growth (compound: `Cc1ccccc1NC(=O)N/C(N)=N/c1nc2ccccc2s1` ) is 6.68

# growth (compound: C=C1CCC2C(C)(COC(=O)CC)C(OC(=O)CC)CCC2(C)C1C/C=C1/C(=O)OCC1OC(=O)CC (stereo unspecified) ) is -28.1

# growth (compound: `C[C@H]1c2cccc(O)c2C(O)=C2C(=O)[C@]3(O)C(O)=C(C(N)=O)C(=O)[C@@H](N(C)C)[C@@H]3[C@@H](O)[C@@H]21` ) is 67.8
